- condition_context: in n-butanol, 278.15 K
readout: solubility (mole fraction)
One number for each entry.

Entry `CC(C)C(=O)OCC(=O)[C@@]12O[C@H](C3CCCCC3)O[C@@H]1C[C@H]1[C@@H]3CCC4=CC(=O)C=C[C@]4(C)[C@H]3[C@@H](O)C[C@@]12C` — recorded solubility (mole fraction) = 0.0669

###

- condition_context: in ethyl acetate, 308.15 K
readout: solubility (mole fraction)
Answers are plain numbers.

Quick note, solubility (mole fraction) for `CC(C)C(=O)OCC(=O)[C@@]12O[C@H](C3CCCCC3)O[C@@H]1C[C@H]1[C@@H]3CCC4=CC(=O)C=C[C@]4(C)[C@H]3[C@@H](O)C[C@@]12C` landed at 0.124
